Assay: Inhibition of tubulin polymerization

molecule	IC50 (nM)
COc1cc(C2C(C#N)=C(N)Oc3c2ccc2c3ccn2C)cc(Br)c1OC (stereo unspecified)	900

* * *

Tested on: SNU-398
Experiment: Growth inhibition of human SNU398 cells after 48 hrs
Type: functional
Conditions: SNU-398, 48 h
measurement_type: GI50 (nM)

molecule	measurement_type	observed
COc1cc(C2C(C#N)=C(N)Oc3c2ccc2[nH]ccc32)cc(Br)c1OC (stereo not given)	GI50	14
COc1cc(C2C(C#N)=C(N)Oc3c2ccc2c3CCN2C)cc(Br)c1OC (stereo not given)	GI50	1
COc1cc(C2C(C#N)=C(N)Oc3c2ccc2c3ccn2CO)cc(Br)c1OC (stereo not given)	GI50	1
COc1cc(C2C(C#N)=C(N)Oc3c2ccc2c3ccn2C)cc(Br)c1OC (stereo not given)	GI50	0.2
Cc1cncc(C2C(C#N)=C(N)Oc3c2ccc2c3ccn2C)c1 (stereo not given)	GI50	2
